The measurements presented in this section are drawn from patent US10174067B2.

Particulars: Day 0; G10-G16 groups; single IP 400 mg/kg
// reported Weight change rate, Day 0 for each item listed
Please state the figure in %; there is no need to write the unit.

Compound	Weight change rate, Day 0 (%)
CCCCOC(=O)Nc1nc(=O)n(C2OC(COC(=O)COc3nc(Cl)c(Cl)cc3Cl)C(O)C2(F)F)cc1I (stereo not drawn) [Compound G11]	0.00
O=C(COc1nc(Cl)c(Cl)cc1Cl)OC[C@H]1O[C@@H](n2cc(Br)c(NC(=O)OCc3ccccc3)nc2=O)C(F)(F)C1O (stereo partly drawn) [Compound G10]	0.00

What Weight change rate, Day 0 value was documented for this compound, O=C(COc1nc(Cl)c(Cl)cc1Cl)OCC1OC(n2cc(-c3cn(Cc4ccccc4)nn3)c(NC(=O)OCc3ccc([N+](=O)[O-])cc3)nc2=O)C(F)(F)C1O (stereo not drawn) [Compound G13] ?
0.00
